- Study system: recombinant full-length RACK1 protein (ITC) (human, UniProt P63244 1-317)
- Experimental protocol: ITC; LARP4 peptide (400 μM; 300 μM for 600–625) injected into RACK1 (40 μM; 30 μM) in the cell; iTC200; 298K; 20 mM HEPES, 300 mM NaCl, 10% glycerol, 1 mM DTT pH 7.5; triplicate
- Condition description: both partners purified
Measurement type: stoichiometry N

HsLARP4 peptide 587–637 (La-related protein 4 (LARP4), human, residues 587-637; source: synthetic peptide (GenScript)) peptide: TTKPSRASTASPCNNNINAATAVALQEPRKLSYAEVCQKPPKEPSSVLVQP: 1
HsLARP4 peptide 575–625 (La-related protein 4 (LARP4), human, residues 575-625; source: synthetic peptide (GenScript)) peptide: LNQTTIPVSPPSTTKPSRASTASPCNNNINAATAVALQEPRKLSYAEVCQK: 1
QEPRKLSYAEVCQK (La-related protein 4 (LARP4), human, residues 612-625; source: synthetic peptide (GenScript)) [HsLARP4 peptide 612–625]: 0.8
RKLSYAEVCQK (La-related protein 4 (LARP4), human, residues 615-625 (within CR2); source: synthetic peptide (GenScript)) [HsLARP4 peptide 615–625]: 0.9

meta.source: paper doi:10.1101/2024.11.01.621267
